assay: chemical genetic growth profiling, strain panel (AID 1159580);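 also: tested at 20 µM; growth read once vehicle control cultures reached saturation at 30 °C; lower values mean less growth of the strain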; details: S. cerevisiae deletion strains, growth OD, locus YLR370C, strain arc18
Hit rate of the full screen: of about 5,500 compounds, about 2,000 (36%) were called active. Not shown: some 18% with an inconclusive outcome. Rule as the data show it: active = normalized growth mostly below about 0.91 (no sharp cut-off); inconclusive = no clear call, values can overlap the other calls; inactive = mostly above about 0.92. Some of the results follow.
Labels: active, inactive

>  <Compound>
C=C1C(=O)O[C@@H]2C3O[C@]3(C)CC/C=C(\C)CC[C@@H]12 (stereo partly drawn)

>  <Label>
inactive

$$$$
>  <Compound>
C=C1CCC2C(CC2(C)C)C(=C)CC/C1=N\O (stereo not drawn)

>  <Label>
inactive

$$$$
>  <Compound>
COc1c2ccoc2c(OC)c2oc(=O)ccc12

>  <Label>
inactive

$$$$
>  <Compound>
O=C1NC(=O)C(=O)C(=O)N1

>  <Label>
inactive

$$$$
>  <Compound>
NS(=O)(=O)c1cc2c(cc1Cl)NC(C(Cl)Cl)NS2(=O)=O (stereo not drawn)

>  <Label>
inactive

$$$$
>  <Compound>
C=C1CCC(C2CC(=O)OC2=O)C(=O)CCC2C1CC2(C)C (stereo not drawn)

>  <Label>
inactive

$$$$
>  <Compound>
CC(C)NCC(O)COc1cccc2ccccc12 (stereo not drawn)

>  <Label>
inactive

$$$$
>  <Compound>
C=CC(N)CCC(=O)O (stereo not drawn)

>  <Label>
inactive

$$$$
>  <Compound>
COc1c(OC)c2occc2c2oc(=O)ccc12

>  <Label>
inactive

$$$$
>  <Compound>
Clc1cccc(Cl)c1NC1=NCCN1

>  <Label>
inactive

$$$$
>  <Compound>
Cc1c(Cl)cccc1Nc1ccccc1C(=O)O

>  <Label>
active

$$$$
>  <Compound>
C=C1CCC2C(CC2(C)C)C(=O)CCC1O (stereo not drawn)

>  <Label>
inactive

$$$$
>  <Compound>
Nc1ccc(N=Nc2ccccc2)c(N)n1

>  <Label>
inactive

$$$$
